Hey, just so you know, these numbers are from the DeepSol protein solubility set.

- experiment: soluble on expression in E. coli; label from the status in PepcDB or PDB records
endpoint label: soluble on expression in E. coli

| biosequence | data value |
| --- | --- |
| MADEEKVTTEEQALADEWAAALAEAGDASQDDIDALMAQGGATPVAEPSTPRAPMEEFGASPKAPTISGLEGPNLDVILDIPVTISMEVGHTDISIRNLLQLNQGSVIELDRLAGEPLDVLVNGTLIAHGEVVVVNEKFGIRLTDVISPSERIKKLR | not soluble |
| MAAACICQPNLLEINVSDGPLDMIRKKRKIQQPQLRPPLRENKCQPHFSVRKVNQSYIISLHKEITCQLIAEIVKQKLSRIWEKVYIPSYELISDKDGNQIYVEQSVDENRLTSEIMEKLDPNNIDIEAIEILFDDYHLELSRLTNGIIISSANDHFYREFSFNNIIDDNFKICGTSMSADSFDKIYGVMWIEVPFNGNGLQNDSAVNRVSTSHNQIEELNDIEQEIRAFNISRSNQESIIKKEVSRRLNGR | not soluble |

###

- experiment: soluble on expression in E. coli; label from the status in PepcDB or PDB records

| biosequence | soluble on expression in E. coli |
| --- | --- |
| DIGCYTLGALPPFREQDSATNMGSSLGISNGVFRSTDQVPVAVIGDSTFFHSGIEGVANAVYNNTAEIIVVLDNRSTAMTGQQPSPSTAIDIGNVCRAMGIEYVETFDPFDVDAGEKAVQQAAEYVKKTLKPAVIIAKRACALEVLEKVDSETPKAYVDSNRCT | not soluble |
| MPSDLIPLIELHQVSKTFGKPVAEHSLQGLLQRLHLTRPKPVTHAVDRVDLRIMRGEVVGLVGESGCGKSTLGRMVAGLLPVSSGVASVDGKPLDSLTTQERKALRLKVQMIFQDPSSSLNPRLRVDRIVGEGALLHGLTDRKGADDYVSAQLQRAGLNPQLRQRYPHQFSGGQRQRIGIARALAVQPELLVCDESVAALDVSIQAQILNLFMDLRDELGLTYLFISHDLGVVEHLCDRVVVMYLGRVVETASVDDLFARANHPYTQALLAQIPRFDIRSTRYDAIQGEIPSPLNPPTGCHFHPRCPHAMARCREEVPALREVSPNHQSACHLNDQR | not soluble |

###

- experiment: soluble on expression in E. coli; label from the status in PepcDB or PDB records

| biosequence | soluble on expression in E. coli |
| --- | --- |
| MGSDKIHHHHHHMDELVDGERESGRAALGRTLRLLREKSGKTLGQLAGETSYDKSYLYRLETGERLSKRAVMEDLDRYHGSGDLLVRLWRDARKDVIKDKYKAFMELEATARVMWKFQLRVPGLLQTEDYARVVLSGLSRAQTTAGNGEEVEEQVAARVGRQEMLHRQPAPSVRVILDEGALRRRVPKEKVWADQLVHLVDVAELASVTLQVLPFTAGVHDLMNSDLTLMWQRVGEPVAYVEGNGFGELVDDPDKVLSYRLSYDLVRDAALTPAESTTFIKRLLEECRS | not soluble |
| EQGREPSWGFTEKSRTRDIPETLVPLITVTPSTELYRITGWGALEGHKVFYHETYINPEVAPGFIEQLENHSFSAVWEKCYQKETVVKKLIFKPVRMPGDISKYLGGSAGMPAILIEKHRADQQGNIVQIDIEYWRFEAVDLIINL | not soluble |
| MGHHHHHHSHMSETSFNLISEKCDILSILRDHPENRIYRRKIEELSKRFTAIRKTKGDGNCFYRALGYSYLESLLGKSREIFKFKERVLQTPNDLLAAGFEEHKFRNFFNAFYSVVELVEKDGSVSSLLKVFNDQSASDHIVQFLRLLTSAFIRNRADFFRHFIDEEMDIKDFCTHEVEPMATECDHIQITALSQALSIALQVEYVDEMDTALNHHVFPEAATPSVYLLYKTSHYNILYAADKH | soluble |
| MQTEHVILLNAQGVPTGTLEKYAAHTADTRLHLAFSSWLFNAKGQLLVTRRALSKKAWPGVWTNSVCGHPQLGESNEDAVIRRCRYELGVEITPPESIYPDFRARATDPSGIVENEVCPVFAARTTSALQINDDEVMDYQWCDLADVLHGIDATPWAFSPWMVMQATNREARKRLSAFTQLKLEHHHHHH | soluble |
| MRAASTSKPVGAHEETGHLGGAHSTYVSSAQVTNAEHENELQVVDLPRAPPSLSKAVTYFYITGFGRFALMEDNPTERVVLRLREILQDPGRVQMLHERLVRIVDLRILEVSAAAAHETLAEMKTQCLQMRQKPNISSDGRNRTVCFLHLGVDASADGFLVERSAVNEALFRFPDERGWQPTTPIPIVRGAQLGARYELDGEALASLCERTESLLNEWGRTNWTVRVNDDAGRFLCNYLFYLSAFEGLAENGHHLWQTFFLHCPMETVAPLDVQVDVVLAFMVAVAQSNAQQGPLEGILAR | soluble |
| TSMIIHRDLEVAIRQDNIIPYFQPIVNAKSGEIIGFEALARWPHPTLGIISPLIFIPLAEQGKLIVELGESILNQSCDFIGKLNTKRHSQGLPPLTVHVNLSAQHFYHSRLISFLQSMIEEHNISAGHLVLEITESMLMGGETESIHCINEIKQLGVQLALDDFGTGYASFSSVCNFPLDIVKLDKSYVDEIETNDRAKTLVRNIANMSQELGLTIVAEGVETASQVRKLKVWNIDELQGFYFYKPMTREDAFAQFSGLPHC | not soluble |
| MKKLSFFLIATLSLGACSTATSPTGRHQVFSGVSQQQLNQLGEQAFVEIKAKEKISGNVRQNAYVRCVVDALVTELPLQWRHVKWETVLFLNEEPNAFALPGGKVGVNTGIFRAAKNQEQLAAVLGHEIGHVVSRHHEERITWQLGTQAGLGLLGVLAGTAYGDSAATAVNQIGGLTAQAAFLLPGSRTQEREADIVGQRLMAQAGFDPIQAVYLWKNMLAIAGQRPPQWLSTHPDPTNRIRQLEQQSAVLASVYAQARDAGRVPHCSPAALEHHHHHH | not soluble |
| MGSDKIHHHHHHMKAIVFGGSGFIGSHIVNSLEADSVAYYSLEKGTNVKRNDAVWIQGDVTDYSKVEASMAGYDTVFFAVEDWAADEARNREILLNGIKNVVSAIKKASTDQKLVSFSMINQPSYPLEYFRTKRLVEDNTRVLKNGLVVRLSIVFGDGDHFTDRFVKLAEQVSHLPEEGNLAPVYVGDVVTVVNSIIKREGVYDICSNDNLPLIRIINYIRKNIGKKEIGSVKLEKGLSMLTETGLFSRYEAELMFQDYYRETSILDRYVKNPTSYLDFLRSILVEHTT | not soluble |
| MSLSTMLVAEDLSAVGGISLSSALPVLTAMQYDVAALPTSLLSTHTSGYGTPAVVDLSTWLPQVFAHWTRAQLHFDQALIGYVGSVALCQQITTYLEQQTLSLLVVDPVLGDLGQLYQGFDQDYVAAMRQLIQQADVILPNTTEAALLTGAPYQVTPDLEVILPALQAQLKTGAHAVITDVQRADQIGCAWLDEAGHVQYCGARRLPGHYNGTGDTLAAVIAGLLGRGYPLAPTLARANQWLNMAVAETIAQNRTDDRQGVALGDLLQAILALNEGHHHHHH | soluble |
| KYSLLEIGLKKDNGSSETIKLKREAIKFENNTVKSYIIKDAKKIGYISIPSFYSDDSNPNALGAANELSKEILKLKNENIEGLIIDLRNNGGGSLYEAVGMSGLFIDIGPLFYVLERSGKATLTKDMNRGTVYDGPLCIMVNGYSASASEIFSAAMQDNHRALIVGEQTYGKATGQSISQLDTTKSISTFSATDNMGATKITEIKLYRTSGFSYQGKGVTPDIILPYL | not soluble |
| MGSDKIHHHHHHMAEFTHLVNERRSASNFLSGHPITKEDLNEMFELVALAPSAFNLQHTKYVTVLDQDVKEKLKQAANGQYKVVSSSAVLLVLGDKQAYQQAADIYEGLKVLGILNKQEYDHMVQDTVSFYENRGEQFKRDEAIRNASLSAMMFMLSAAAAGWDTCPMIGFDAEAVKRILNIDDQFEVVMMITIGKEKTESRRPRGYRKPVNEFVEYM | soluble |
